Record form. Attribute: GI50. Fill in for each entry.
Test system: TK-10
experimental_details: NCI tumour cell line growth inhibition, 48 h
The source made the active and inactive calls. No stated cut-off is given here; in the data, active = GI50 up to about 1.1 µM and inactive = higher.

molecule	GI50
CNC(=O)OCc1cc2ccncc2c2c1[nH]c1ccccc12	> 100 µM (inactive)
CCCCCCCC1(N=[N+]=[N-])C(=O)Nc2ccccc2C1=O (stereo unspecified)	17.2 µM (inactive)
N/C(=N\c1ccc(Cl)cc1)NS(=O)(=O)c1cc(Cl)c(Oc2ccc([N+](=O)[O-])cc2Cl)c(Cl)c1	18.2 µM (inactive)
COc1ccc(/C(Cl)=C(\C=N/O)c2ccc(OC)c(OC)c2)cc1OC	> 100 µM (inactive)
N=C1CCCC1C(=S)SCCC(N)=O (stereo unspecified)	> 100 µM (inactive)
CCCCn1c(-c2ccccc2)cs/c1=N\NC(=O)Cn1c(C)nc2ccccc21	> 100 µM (inactive)

I need GI50 for every entry listed below, if you could help.
1. Nc1cc2c(nnn2C2OC(COCc3ccccc3)C(OCc3ccccc3)C2OCc2ccccc2)c(=O)[nH]1 (stereo unspecified)
2. C[N+](C)=c1nc(N2CCOCC2)ss1

Response:
1. 10 µM (inactive)
2. > 100 µM (inactive)
